Attribution: patent US20240327411A1

molecular target: Sirt6 (Homo sapiens, UniProt Q8N6T7); experiment: Sirt6-dependent peptide deacetylation, FLUOR DE LYS / Sirt6 fluorometric activity kit; type: biochemical; conditions: compound at 30 μM, mean ± SD, at least two independent experiments
Sequence (Q8N6T7 whole entry): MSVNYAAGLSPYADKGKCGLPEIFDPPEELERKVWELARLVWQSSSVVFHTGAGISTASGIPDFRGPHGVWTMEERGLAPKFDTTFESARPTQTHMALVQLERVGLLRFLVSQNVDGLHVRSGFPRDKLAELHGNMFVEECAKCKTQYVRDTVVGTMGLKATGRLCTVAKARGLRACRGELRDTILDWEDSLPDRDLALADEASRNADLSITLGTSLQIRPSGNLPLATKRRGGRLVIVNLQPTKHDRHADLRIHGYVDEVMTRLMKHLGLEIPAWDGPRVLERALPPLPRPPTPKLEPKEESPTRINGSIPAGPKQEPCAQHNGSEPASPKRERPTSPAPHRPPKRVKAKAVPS
observed property: Activation Fold 30 μM (fold)
Quick reminder: number only, in fold, skip the unit.

Study these solved cases before continuing.
c1ccc2c(c1)NC(c1cccnc1N1CCN(CCN3CCCC3)CC1)c1cccn1-2 (centres unmarked) [Compound 47] : 4.80
CN1CCCN(c2ncccc2C2Nc3ccccc3-n3cccc32)CC1 (centres unmarked) [Compound 19] : 2.18
CN(C)CCN1CCN(c2ncccc2C2Nc3ccccc3-n3cccc32)CC1 (centres unmarked) [Compound 38] : 3.83
CN(C)C(=O)CN1CCN(c2ncccc2C2Nc3ccccc3-n3cccc32)CC1 (centres unmarked) [Compound 39] : 3.21

Turning to the following compound.
Per the records, this compound ( OCCN1CCN(c2ncccc2C2Nc3ccccc3-n3cccc32)CC1 (centres unmarked) [Compound 35] ) has Activation Fold 30 μM equal to 2.92

---

Examples of compounds with documented Activation Fold 100 μM follow.
molecular target: Sirt6 (Homo sapiens, UniProt Q8N6T7); test: Sirt6-dependent peptide deacetylation, FLUOR DE LYS / Sirt6 fluorometric activity kit; assay type: biochemical; conditions: compound at 100 μM, mean ± SD, at least two independent experiments
Give the number; fold is assumed, so skip it.

Consider the reported Activation Fold 100 μM for these compounds:
Clc1ncccc1C1Nc2ccccc2-n2cccc21 (stereo not drawn) [Compound 14] : 1.04
c1ccc2c(c1)NC(c1cccnc1N1CCN(CCN3CCCC3)CC1)c1cccn1-2 (stereo not drawn) [Compound 47] : 5.38

Now for another entry.
Please fill in: Activation Fold 100 μM reported for COCCN1CCN(c2ncccc2C2Nc3ccccc3-n3cccc32)CC1 (stereo not drawn) [Compound 36] = 6.06

---

Listed here: items and their measured Activation Fold 100 μM.
target: UniProt Q8N6T7; assay: Sirt6-dependent peptide deacetylation, FLUOR DE LYS / Sirt6 fluorometric activity kit; format: biochemical; conditions: compound at 100 μM, mean ± SD, at least two independent experiments
Only the number, expressed in fold, is required.

Take a look at these entries with their results.
COCCCN1CCN(c2ncccc2C2Nc3ccccc3-n3cccc32)CC1 (stereo not drawn) : 5.02
c1ccc2c(c1)NC(c1cccnc1N1CCN(CCn3ccnc3)CC1)c1cccn1-2 (stereo not drawn) : 6.29
CN(C)CCN1CCN(c2ncccc2C2Oc3ccccc3-n3c2ccc3C(F)(F)F)CC1 (stereo not drawn) : 4.20
Cc1ccc2c(c1)-n1cccc1C(c1cccnc1N1CCN(CCN(C)C)CC1)O2 (stereo not drawn) : 4.56
CN1C[C@@H]2CN(c3ncccc3C3Nc4ccccc4-n4cccc43)C[C@@H]2C1 (stereo partly drawn) : 4.24

// Activation Fold 100 μM lookup, compound = N#CCN1CCN(c2ncccc2C2Nc3ccccc3-n3cccc32)CC1 (stereo not drawn) , result: 4.74

get_value(item= COc1ccc2c(c1)-n1cccc1C(c1cccnc1N1CCN(CCN(C)C)CC1)O2 (stereo not drawn) , readout=Activation Fold 100 μM) returns 5.65

For reference, reported Activation Fold 100 μM for CN(C)c1ncccc1C1Nc2ccccc2-n2cccc21 (stereo not drawn) stands at 1.08

# compound OC1CN(CCN2CCN(c3ncccc3C3Nc4ccccc4-n4cccc43)CC2)C1 (stereo not drawn) ; its Activation Fold 100 μM = 6.30

---

target: Sirt6 (Homo sapiens, UniProt Q8N6T7); assay: Sirt6-dependent peptide deacetylation, FLUOR DE LYS / Sirt6 fluorometric activity kit; format: biochemical; conditions: compound at 30 μM, mean ± SD, at least two independent experiments
Here, each record is paired with measured Activation Fold 30 μM data.
Response body: numeric value in fold, unit text excluded.

COCCN1CCN(c2ncccc2C2Nc3ccccc3-n3cccc32)CC1 (centres unmarked) : 3.17

For Cc1ccc2c(c1)-n1cccc1C(c1cccnc1N1CCN(CCN(C)C)CC1)O2 (centres unmarked) the compound record lists Activation Fold 30 μM as 2.99

Reported Activation Fold 30 μM ( c1ccc2c(c1)NC(c1cccnc1N1CCN(CCn3ccnc3)CC1)c1cccn1-2 (centres unmarked) ) = 3.34

Summary for this compound, COCCCN1CCN(c2ncccc2C2Nc3ccccc3-n3cccc32)CC1 (centres unmarked) : Activation Fold 30 μM is 3.13

The value of Activation Fold 30 μM measured for the compound CS(=O)(=O)N1CCN(c2ncccc2C2Nc3ccccc3-n3cccc32)CC1 (centres unmarked) turned out to be 2.03

---

system: SARS-CoV-2; assay: microbe, parasite or virus in culture; format: cell-based; conditions: Severe acute respiratory syndrome coronavirus 2, 48 h; read-out: EC50, SARS-CoV-2 infection
observed property: EC50 (µM)
API: value field is a number in µM; no unit string.

Query CN(C)CCN1CCN(c2ncccc2C2Nc3ccccc3-n3cccc32)CC1 (stereo not shown) yields EC50 of 9.3

---

target: UniProt:Q8N6T7; assay: Sirt6-dependent peptide deacetylation, FLUOR DE LYS / Sirt6 fluorometric activity kit; assay type: biochemical; conditions: compound at 100 μM, mean ± SD, at least two independent experiments
observed property: Activation Fold 100 μM (fold)
Give the quantity in fold, number only.

c1ccc2c(c1)NC(c1cccnc1N1CCCC1)c1cccn1-2 (centres unmarked) : 1.22
COC(=O)c1ccc2c(c1)OC(c1cccnc1N1CCN(CCN(C)C)CC1)c1cccn1-2 (centres unmarked) : 4.82
c1ccc2c(c1)NC(c1cccnc1N1CCC1)c1cccn1-2 (centres unmarked) : 1.38

According to the records, this molecule O=C1CCCN1CCN1CCN(c2ncccc2C2Nc3ccccc3-n3cccc32)CC1 (centres unmarked) displays Activation Fold 100 μM of 5.64

Lab note: measured Activation Fold 100 μM of OC1CN(c2ncccc2C2Nc3ccccc3-n3cccc32)C1 (centres unmarked) was 1.47

---

As shown below, each of these compounds has a reported Activation Fold 30 μM value.
molecular target: Sirt6 (Homo sapiens, UniProt Q8N6T7); assay: Sirt6-dependent peptide deacetylation, FLUOR DE LYS / Sirt6 fluorometric activity kit; format: biochemical; conditions: compound at 30 μM, mean ± SD, at least two independent experiments
Give the value in fold but do not write fold after it.

CN1C[C@@H]2CN(c3ncccc3C3Nc4ccccc4-n4cccc43)C[C@@H]2C1 (stereo partly shown) : 2.00
OC1CN(CCN2CCN(c3ncccc3C3Nc4ccccc4-n4cccc43)CC2)C1 (stereo not shown) : 3.30
O=C(CCl)N1CCN(c2ncccc2C2Nc3ccccc3-n3cccc32)CC1 (stereo not shown) : 1.93

Now turn to the next compound.
Record CN(C)CCN1CCN(c2ncccc2C2Oc3ccccc3-n3c2ccc3C(F)(F)F)CC1 (stereo not shown) has Sirt6 (Homo sapiens, UniProt Q8N6T7) Activation Fold 30 μM equal to 2.69

---

Reported values of Activation Fold 30 μM for individual entries
biological target: UniProt Q8N6T7; experiment: Sirt6-dependent peptide deacetylation, FLUOR DE LYS / Sirt6 fluorometric activity kit; assay type: biochemical; conditions: compound at 30 μM, mean ± SD, at least two independent experiments
Please reply with the bare figure in fold and do not write the unit itself.

Previously resolved entries follow.
CN(C)CCN1CCN(c2ncccc2C2Oc3ccc(F)cc3-n3cccc32)CC1 (stereo not drawn) : 1.84
c1ccc2c(c1)NC(c1cccnc1N1CCC(N3CCCC3)CC1)c1cccn1-2 (stereo not drawn) : 1.89

Field Activation Fold 30 μM (entry N#CCN1CCN(c2ncccc2C2Nc3ccccc3-n3cccc32)CC1 (stereo not drawn) ) reads 2.37
